# system: T1, recombinant hMCAM-His (human, UniProt P43121 24-559)
# T1 construct: not shown: His tag
# T1 chain: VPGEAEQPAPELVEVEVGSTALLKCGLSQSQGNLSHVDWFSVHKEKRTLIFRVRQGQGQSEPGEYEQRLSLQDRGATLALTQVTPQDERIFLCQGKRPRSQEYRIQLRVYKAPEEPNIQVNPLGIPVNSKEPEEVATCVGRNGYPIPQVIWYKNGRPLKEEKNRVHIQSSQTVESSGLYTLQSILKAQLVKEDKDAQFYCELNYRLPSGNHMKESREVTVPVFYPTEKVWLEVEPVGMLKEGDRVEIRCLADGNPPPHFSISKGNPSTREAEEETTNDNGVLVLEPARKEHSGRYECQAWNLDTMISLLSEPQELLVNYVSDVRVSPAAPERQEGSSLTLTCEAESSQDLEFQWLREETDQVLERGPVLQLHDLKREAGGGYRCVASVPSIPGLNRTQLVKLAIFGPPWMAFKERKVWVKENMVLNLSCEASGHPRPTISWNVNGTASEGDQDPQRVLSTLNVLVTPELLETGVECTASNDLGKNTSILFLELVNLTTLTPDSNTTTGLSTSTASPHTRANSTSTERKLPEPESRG
# procedure-summary: competitive ELISA on hMCAM-His, competitor biotinylated rodent or chimeric 1749; Expt. #1; vs rodent 1749
fold over rodent (competitive ELISA) values by entry
API: value field is a number in fold; no unit string.

Would you please look over these solved cases?
binder | fold over rodent (competitive ELISA) (fold)
mouse anti-human MCAM monoclonal antibody clone 1749.1.3 (antibody, V domains shown, mouse hybridoma antibody; also called rodent 1749; murine 1749.1.3 anti-MCAM antibody) VH: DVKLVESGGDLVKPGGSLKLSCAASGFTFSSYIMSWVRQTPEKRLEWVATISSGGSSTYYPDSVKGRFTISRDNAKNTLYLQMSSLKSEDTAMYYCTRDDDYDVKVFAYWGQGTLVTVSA VL: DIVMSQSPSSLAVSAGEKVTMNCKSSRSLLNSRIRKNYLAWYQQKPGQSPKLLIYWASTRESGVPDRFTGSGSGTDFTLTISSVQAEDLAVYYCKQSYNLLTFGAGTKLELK | 1
h1749VH1 + h1749VL1 (antibody, human IgG1, V domains shown, also called humanized 1749 standard VH and VL) VH: EVQLVESGGGLVQPGGSLRLSCAASGFTFSSYIMSWVRQAPGKGLEWVATISSGGSSTYYPDSVKGRFTISRDNAKNSLYLQMNSLRAEDTAVYYCTRDDDYDVKVFAYWGQGTMVTVSS VL: DIVMTQSPDSLAVSLGERATINCKSSRSLLNSRIRKNYLAWYQQKPGQPPKLLIYWASTRESGVPDRFSGSGSGTDFTLTISSLQAEDVAVYYCKQSYNLLTFGQGTKVEIK | 1.26

# next binder below
Respond only with fold over rodent (competitive ELISA) recorded for h1749VH2 + h1749VL2 (antibody, human IgG1, V domains shown, also called humanized 1749 conservative VH and VL) VH: EVQLVESGGGLVQPGGSLRLSCAASGFTFSSYIMSWVRQAPGKRLEWVATISSGGSSTYYPDSVKGRFTISRDNAKNSLYLQMNSLRAEDTAVYYCTRDDDYDVKVFAYWGQGTMVTVSS VL: DIVMTQSPDSLAVSLGERATINCKSSRSLLNSRIRKNYLAWYQQKPGQPPKLLIYWASTRESGVPDRFTGSGSGTDFTLTISSLQAEDVAVYYCKQSYNLLTFGQGTKVEIK
1.28
